Every entry's value here was drawn from ChEMBL document CHEMBL5058577.

Tested on: U2OS
Experiment: Multiplex assay against U2OS
Format: toxicity, cell-based
Details: human, 24 h, 1 µM, compound concentration 1 uM, replicate 2
measured_endpoint: Total Cell Count

- molecule: "C[C@@H]1CC(=O)Nc2cccc(-c3ccc4c(c3)c(-c3cnn(C)c3)nn4C)c2N1"
  measurement: 152
- molecule: "O=C(Nc1cc(-c2ccccc2)nn1-c1ccccc1F)c1ccc([N+](=O)[O-])cc1"
  measurement: 226
- molecule: "Cc1cc(=O)n(C)c2cc(N3C(=O)CC[C@H](NS(=O)(=O)CC(C)C)[C@H]3c3ccc(Cl)cc3)ccc12"
  measurement: 146
- molecule: "COc1cc(OC2CCN(C(C)=O)CC2)ccc1C(=O)N1CCC(N2C(=O)OCc3ccccc32)CC1"
  measurement: 163
- molecule: "Cc1c(Cc2ccc3ccccc3n2)c2cc(F)ccc2n1CC(=O)O [TIMAPIPRANT]"
  measurement: 117
- molecule: "Cc1ccc(OCC(O)C(C)NC(C)C)c2c1CCC2.Cl (centres undefined)"
  measurement: 155
- molecule: "CC(C)(C)c1ccc(CSc2cnn(C(C)(C)C)c(=O)c2Cl)cc1 [PYRIDABEN]"
  measurement: 186
- molecule: "CC(C)(O)C(=O)N1CCN(c2ccc(C(F)(F)F)c(C3=C(c4c[nH]c5ccccc45)C(=O)NC3=O)c2)CC1"
  measurement: 172
- molecule: "Cc1cc(NC(=O)NCCN2CCC(O)(Cc3ccccc3)CC2)c2ccccc2n1 [PALOSURAN]"
  measurement: 173
